# Tested on: OA-sensitized guinea pigs
# assay.text: Antigen-induced bronchoconstriction: specific airway resistance (sRaw) after ovalbumin challenge
# Assay type: in vivo, guinea pig
# test.parameters: pre-treatment i.p. 60 min before antigen challenge
recorded.endpoint: increase in sRaw caused by OA challenge (immediate bronchoconstriction)

# molecule.smiles, result
records = [
    ("CCCCC/C=C\\C/C=C\\C/C=C\\C/C=C\\CCCC(=O)C(F)(F)F", "not attenuated"),
    ("COc1ccc2c(c1)c(CC(=O)O)c(C)n2C(=O)c1ccc(Cl)cc1", "not attenuated"),
    ("Cc1nnc2n1-c1sc3c(c1C(c1ccccc1Cl)=N[C@H]2C)CCN(C(=O)C1CC1)C3", "not attenuated"),
]
